The reported measurements were obtained from ChEMBL document CHEMBL5042538.

molecular target: CYP3A4 (Homo sapiens); assay: Inactivation of recombinant human CYP3A4 assessed as inactivation constant using midazolam as substrate preincubated for 5 mins followed by beta-NADP addition for 15 mins and midazolam addition after 10 mins in presence of NADPH-generating system by LC-MS/MS analysis; assay type: ADME; conditions: recombinant human CYP3A4, probe midazolam, time 30 min
Sequence (P08684 whole entry): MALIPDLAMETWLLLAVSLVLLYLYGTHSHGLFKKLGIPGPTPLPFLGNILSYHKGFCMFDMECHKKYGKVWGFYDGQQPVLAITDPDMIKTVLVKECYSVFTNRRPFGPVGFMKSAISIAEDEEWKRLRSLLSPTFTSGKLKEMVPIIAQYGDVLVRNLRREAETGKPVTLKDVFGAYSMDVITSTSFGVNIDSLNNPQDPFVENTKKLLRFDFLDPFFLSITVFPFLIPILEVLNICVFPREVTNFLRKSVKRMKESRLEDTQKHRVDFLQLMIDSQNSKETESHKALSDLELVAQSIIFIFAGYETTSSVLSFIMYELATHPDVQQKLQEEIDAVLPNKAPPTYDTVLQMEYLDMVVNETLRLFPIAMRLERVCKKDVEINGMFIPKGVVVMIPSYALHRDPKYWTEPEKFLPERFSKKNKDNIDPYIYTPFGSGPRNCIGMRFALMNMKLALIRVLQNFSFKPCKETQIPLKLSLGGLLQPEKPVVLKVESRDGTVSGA
Value Type: kinact (s⁻¹)

> print(dat)
                           structure.smiles          tested.target  measured.value
1  C[C@]12CCC(=O)C[C@H]1CC[C@@H]1[C@@H]2CC[C@]2(C)[C@@H](c3ccc(=O)oc3)CC[C@]12O  CYP3A4 (Homo sapiens)         0.00268
